All figures here come from patent US20100190701A1.

% Potency Relative to Native: recorded values
Assay Target: GLP-1 receptor (UniProt P43220 24-463, limits assumed)
Assay Summary: cell-based or functional assay
Bridge positions count the residues as written; N and C are the ends. Square brackets hold non-standard residues; d marks the D form. Ends that are not written are not given here. PEG = not defined here; Aib = CC(C)(N)C(=O)O
Unit % implied. Number only.

Here is how some binders turned out for % Potency Relative to Native.
Binder	% Potency Relative to Native (%)
H[Aib]QGTFTSDYSKYLDEQAAKEFIC(PEG)WLMNT-NH2 (lactam 16-20; not fully specified; reading uncertain) [Chimera AIB2, Cys24 Lactam (SEQ ID NO: 504), parent w/PEG]	38
H[Aib]QGTFTSDYSKYLDEQAAKEFICWLMNT-NH2 [Chimera AIB2, Cys24 (SEQ ID NO: 486), parent w/o PEG]	161
H[Aib]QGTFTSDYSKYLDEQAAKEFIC(PEG)WLMNT-NH2 (not fully specified; reading uncertain) [Chimera AIB2, Cys24 (SEQ ID NO: 486), parent w/PEG]	82.5

Reported % Potency Relative to Native for H[Aib]QGTFTSDYSKYLDEQAAKEFICWLMNT-NH2 (lactam 16-20) [Chimera AIB2, Cys24 Lactam (SEQ ID NO: 504), parent w/o PEG] was 230
